# Test system: COLO 205
# protocol_description: NCI tumour cell line growth inhibition, 48 h
The source made the active and inactive calls. Rule as the data show it: active = GI50 up to about 1.1 µM and inactive = higher.
# valid calls are True (active), False (inactive); nothing else

* CC(=O)Nc1ccc(Cl)c(Cl)c1 | False
* COc1ccc2c(c1)C=C(C(C)(C)C)NS2(=O)=O | False

Name the outcome recorded for NC1=CN2c3ccccc3N(CC(=O)N3CCOCC3)C2C=C1 (stereo unspecified) in the assay.
False

Name the outcome recorded for CC(=O)Nc1cc2c(s1)CCC1CC(=O)NN=C21 (stereo unspecified) in the assay.
False

Name the outcome recorded for O=c1[c-](-c2ccccc2)[se]c(-c2ccccc2)[n+]1-c1ccccc1 in the assay.
False

----------
# System: HL-60
# protocol_description: NCI tumour cell line growth inhibition, 48 h
The source made the active and inactive calls. No stated cut-off is given here; in the data, active = GI50 up to about 1.1 µM and inactive = higher.
# valid calls are active, inactive; nothing else

Below, 4 molecules whose answers are already recorded.
- O=Cc1ccc(Oc2c3ccccc3nc3ccccc23)cc1: active
- CNC(=O)SCC(N)C(=O)O (stereo not given): inactive
- O=C1c2cccc3cc4ccccc4c(c23)C(=O)N1CCNCCNCCNCCN1C(=O)c2cccc3cc4ccccc4c(c23)C1=O: active
- CCCc1c(C(=O)OCC)[nH]c(C(=O)CCC(=O)c2[nH]c(C(=O)OCC)c(CCC)c2C(=O)OCC)c1C(=O)OCC: inactive

We now examine a further molecule.
Name the outcome recorded for O=C1c2ccccc2C(=O)N1CCc1nc(-c2ccccc2)c[nH]1 in the assay.
inactive

----------
# Test system: OVCAR-5
# protocol_description: NCI tumour cell line growth inhibition, 48 h
Active and inactive are the calls of the source. Cut-off read from the data, not from the text of the source: active = GI50 up to about 1.1 µM and inactive = higher.
# GI50 per entry

• CCOc1cn(C2CC(O)C(CO)O2)c(=O)[nH]c1=O (stereo unspecified) = > 100 µM (inactive)
• CCCCN(CCCC)CC(C(C)=O)C(c1ccccc1)c1c(O)c2ccccc2oc1=O (stereo unspecified) = > 100 µM (inactive)
• O=[N+]([O-])c1ccc2c(c1)Sc1ccccc1N2 = > 100 µM (inactive)
• CC(=O)N(C)CCc1c[nH]c2ccccc12 = > 100 µM (inactive)
• O=C(O)CSc1n[nH]c(=O)[nH]c1=O = > 100 µM (inactive)
• C/C(=N\c1ccc(N(C)C)cc1)c1ccccc1 = > 100 µM (inactive)
• COc1cc(C2c3cc4c(cc3CC3COC(=O)N32)OCO4)cc(OC)c1OC (stereo unspecified) = > 53.1 µM (inactive)
• O=C(/C=C1\N=C(c2ccccc2)N(c2ccc3c(c2)Sc2cc(N4C(=O)/C(=C/C(=O)/C=C/c5ccccc5)N=C4c4ccccc4)ccc2N3)C1=O)/C=C/c1ccccc1 = 22.4 µM (inactive)

Item: CN(C)Cc1cc(C(=O)/C=C/c2ccc(/C=C/C(=O)c3cc(CN(C)C)c(O)c(CN(C)C)c3)cc2)cc(CN(C)C)c1O Test system: OVCAR-5 Read-out: GI50 Value: ?
17.4 µM (inactive)

Item: CC(C)[C@@H](COC(C)(C)C)/N=C/N1CCc2c([nH]c3ccccc23)C1 Test system: OVCAR-5 Read-out: GI50 Value: ?
> 100 µM (inactive)

Item: c1ccc(/C(=N\Nc2nc3ccccc3s2)c2ccccn2)cc1 Test system: OVCAR-5 Read-out: GI50 Value: ?
3.91 µM (inactive)

----------
# GI50 per entry
# Test system: UO-31
# protocol_description: NCI tumour cell line growth inhibition, 48 h
The source made the active and inactive calls. Rule as the data show it: active = GI50 up to about 1.1 µM and inactive = higher.

• O=C(Nc1ccccc1F)c1c(O)nc2sccn2c1=O = > 10 µM (inactive)
• O=C(O)/C(=C/c1ccccc1[N+](=O)[O-])c1cccs1 = > 100 µM (inactive)
• C[C@H](C(=O)C12CC3CC(CC(C3)C1)C2)[C@H](O)c1ccccc1 = 29 µM (inactive)
• COc1cc(C2c3cc4c(cc3CC3COC(=O)N32)OCO4)cc(OC)c1OC (stereo not drawn) = 5.33 µM (inactive)
• Oc1ccc(SCc2cc(O)c(O)c(O)c2)cc1 = 24.8 µM (inactive)
• NC(=O)C(=CN1C(=O)CC(=O)NC1=S)C(N)=O = > 100 µM (inactive)
• COC(=O)C1=C(OC(=O)/C=C/c2ccccc2)C(C(=O)OC)[C@@]2(O)[C@@H](C(=O)OC)[C@H](C)C[C@@H]1[C@@H]2C(=O)OC (stereo partly drawn) = 17 µM (inactive)
• COc1cc(C2C(Cl)C(=O)N2NC(=O)c2ccc(N)cc2)cc(Br)c1O (stereo not drawn) = 17.8 µM (inactive)

Item: O=C(O)/C(=C/c1ccccc1[N+](=O)[O-])c1ccccc1 Test system: UO-31 Read-out: GI50 Value: ?
> 100 µM (inactive)

Item: CSc1c(C(=O)Nc2ccc(C)cc2)c(N)n(N)c(=O)c1C#N Test system: UO-31 Read-out: GI50 Value: ?
60.1 µM (inactive)
